Record: IC50 reported on Adenosine receptor A2a (Homo sapiens).
Sequence (P29274 whole entry): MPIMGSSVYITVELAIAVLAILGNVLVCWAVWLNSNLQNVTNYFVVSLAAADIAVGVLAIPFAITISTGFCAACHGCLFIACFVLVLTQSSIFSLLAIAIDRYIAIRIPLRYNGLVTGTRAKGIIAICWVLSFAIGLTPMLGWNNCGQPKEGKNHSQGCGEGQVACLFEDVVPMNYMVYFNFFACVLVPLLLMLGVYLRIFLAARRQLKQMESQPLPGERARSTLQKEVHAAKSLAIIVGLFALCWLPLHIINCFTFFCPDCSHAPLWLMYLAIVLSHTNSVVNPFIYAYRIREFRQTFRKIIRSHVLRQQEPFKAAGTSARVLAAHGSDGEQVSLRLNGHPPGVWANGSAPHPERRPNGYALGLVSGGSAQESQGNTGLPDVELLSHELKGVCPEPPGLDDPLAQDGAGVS

{"columns": ["Smi", "Comparative Sign", "IC50, nM"],
 "data": [
  ["CCn1nc(-c2cccc(-c3cncc(O)c3)c2)cc(NC(=O)Nc2c(Cl)cncc2Cl)c1=O", "=", 333],
  ["CCn1nc(-c2cccc(-c3cc(C#N)cc(C(=O)NC4CC4)c3)c2)cc(NC(=O)Nc2c(Cl)cncc2Cl)c1=O", ">", 1000],
  ["CCn1nc(-c2cccc(-c3cccc(C(=O)NCCN(C)C)c3)c2)cc(NC(=O)Nc2c(Cl)cncc2Cl)c1=O", "=", 28],
  ["CCn1nc(-c2cccc(-c3cc(C(=O)NCC[C@H]4CCCN4C)cc(C(=O)NC4CC4)c3)c2)cc(NC(=O)Nc2c(Cl)cncc2Cl)c1=O", ">", 1000],
  ["CCn1nc(-c2cccc(-c3cc(OCC4CC4)cc(C(=O)NCCN4CCCCC4)c3)c2)cc(NC(=O)Nc2c(Cl)cncc2Cl)c1=O", ">", 1000]
]}
